System: ATP;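 further: ATP exposure 15 min at 22 °C before imaging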
protocol: switch fluorescence ratio, 500 uM ATP over buffer (Cy3 cluster intensity, sum of 5 cycles each) (fold (ratio)); higher = stronger signal-on switching upon ATP binding; sequences stand for … in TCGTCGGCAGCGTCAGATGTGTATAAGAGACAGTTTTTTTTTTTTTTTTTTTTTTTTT…TC
measurement.parameters: aptamer strand: ATP DNA aptamer (quencher-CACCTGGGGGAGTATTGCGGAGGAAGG + anchor), 100 nM annealed; ATP concentration: 500 uM
Each entry gets No if its switch fluorescence ratio stays under 1, and Yes if its switch fluorescence ratio is 1 or above.

polymer.sequence: AAGCTCCTCT
classification: Yes

polymer.sequence: CAGGGGGAGG
classification: Yes

polymer.sequence: TCACGTTATG
classification: Yes

polymer.sequence: ATTATAAGTG
classification: No

polymer.sequence: GCACTCCAGG
classification: Yes

polymer.sequence: GTTTCAATGC
classification: Yes

polymer.sequence: ACCGCATTGT
classification: Yes

polymer.sequence: GGTGGCTTAA
classification: No

polymer.sequence: AATAACGAAG
classification: Yes

polymer.sequence: TTCCGACGAT
classification: Yes

Request: Quick check, switch fluorescence ratio >= 1? `TTTATAATTG`
Result: Yes

Request: Quick check, switch fluorescence ratio >= 1? `TGGTCAGGGG`
Result: Yes

Request: Quick check, switch fluorescence ratio >= 1? `CACACGTACA`
Result: Yes

Data origin, for the record: the supplement of paper PMC10126150
